- Protocol summary: Quantitative High-Throughput drug screen in 47 multiple myeloma cell lines against the NCATS MIPE library collection: RPMI8226_ATCC cell viability assay (AID 1919871); also: nearly all actives have a fitted effect of over 30% in size
- Test context: RPMI8226 myeloma viability, CellTiter-Glo ATP luminescence, 48 h; series mostly up to 45.8 µM
Records with an inconclusive call do not appear. Active and inactive are the calls of the source. Calls follow the shape of the dose curve; as a rule, active = well fitted cell-killing curve with a large enough effect; inconclusive = small, poorly fitted or top-dose-only effect, or effect the other way; inactive = no such curve, though single readings can be large or run the other way.
Select the correct class. Options are active, inactive and nothing else.

Worked examples follow.
Molecule	Label
CC(=O)OCC(=O)[C@@]1(O)CC[C@H]2[C@@H]3CCC4=CC(=O)CC[C@]4(C)[C@@H]3C(=O)C[C@@]21C	inactive
CC[C@@]1([C@@H]2O[C@@H]([C@H]3O[C@@](O)(CO)[C@H](C)C[C@H]3C)C[C@H]2C)CC[C@H]([C@]2(C)CC[C@]3(C[C@H](O)[C@@H](C)[C@@H]([C@@H](C)[C@@H](OC)[C@H](C)C(=O)O)O3)O2)O1	active

Which result was noted for this molecule in the test: CCCNC(=O)[C@H]1O[C@H]1C(=O)N[C@H](C(=O)N1CCC[C@@H]1C(=O)OC)C(C)CC (stereo not given in full)
active

Try CN1CCCN(C(=O)c2cccc(-c3ccc(C=C4C(=O)Nc5ccc(Cl)cc54)o3)c2)CC1 next.
active

Try O=C(O)C[C@H](O)C[C@H](O)C=Cc1c(C2CC2)nc2ccccc2c1-c1ccc(F)cc1 next.
active

---

- Protocol summary: Quantitative High-Throughput drug screen in 47 multiple myeloma cell lines against the NCATS MIPE library collection: INA6_PLB cell viability assay (AID 1918965; also: nearly all actives have a fitted effect of over 55% in size)
- Test context: INA6 myeloma viability, CellTiter-Glo ATP luminescence, 48 h; series mostly up to 45.8 µM
Inconclusive results are not listed. The source made the active and inactive calls. The call rests on the fitted dose curve; in most records, active means well fitted cell-killing curve with a large enough effect; inconclusive means small, poorly fitted or top-dose-only effect, or effect the other way; inactive means no such curve, though single readings can be large or run the other way. Starred links: 1 amine or outer side, 2 acyl side, 3 side chain; linkers in the order of their positions; H or OH if unused. Positions of bridges follow the written chain, without caps; N, C: chain ends. Non-standard residues stand in square brackets, D forms with d. Residues, ends and D or L forms follow the SMILES beside them. Chains are numbered I, II in the order given. Actinocin(9to1) = Cc1c2oc3c(C)ccc(C(=O)[*:1])c3nc-2c(C(=O)[*:2])c(N)c1=O; NMeV = CN[CH](C(=O)O)C(C)C; Sar = CNCC(=O)O
Select the correct class. Options are YES for active, NO for inactive and nothing else.

Worked examples follow.
Compound	Label
Cc1c2oc3c(C)ccc(C(=O)NC4C(=O)NC(C(C)C)C(=O)N5CCCC5C(=O)N(C)CC(=O)N(C)C(C(C)C)C(=O)OC4C)c3nc-2c(C(=O)NC2C(=O)NC(C(C)C)C(=O)N3CCCC3C(=O)N(C)CC(=O)N(C)C(C(C)C)C(=O)OC2C)c(N)c1=O (centres undefined) (I: TVP[Sar][NMeV] / II: TVP[Sar][NMeV]; ester I:1-I:C, II:1-II:C; linker I:N-II:N via Actinocin(9to1); configuration not given here)	NO
COC[C@H](NC(=O)c1cnc(C)s1)C(=O)N[C@@H](COC)C(=O)N[C@@H](Cc1ccccc1)C(=O)[C@@]1(C)CO1	YES
CC(=O)O[C@H]1C[C@@H]2CC[C@H]3[C@H]4C[C@H]([N+]5(C)CCCCC5)[C@@H](OC(C)=O)[C@@]4(C)CC[C@@H]3[C@@]2(C)C[C@H]1[N+]1(C)CCCCC1	NO

Below: the item to evaluate.
Which result was noted for this compound in the test: CN(C)CC(=O)N1CCC(c2ccc(NC(=O)c3ncc(C#N)[nH]3)c(C3=CCCCC3)c2)CC1
YES

---

- Protocol summary: Quantitative High-Throughput drug screen in 47 multiple myeloma cell lines against the NCATS MIPE library collection: KMS20_JCRB cell viability assay (AID 1918973); also: nearly all actives have a fitted effect of over 45% in size
- Test context: CellTiter-Glo ATP, 48 h; series mostly up to 45.8 µM
Records with an inconclusive call do not appear. The source made the active and inactive calls. Calls follow the shape of the dose curve; as a rule, active = well fitted cell-killing curve with a large enough effect; inconclusive = small, poorly fitted or top-dose-only effect, or effect the other way; inactive = no such curve, though single readings can be large or run the other way.
Select the correct class. Options are active, inactive and nothing else.

Which result was noted for this molecule in the test: COc1cc(O)c2c(c1)C1OC1C[C@H](O)[C@H](O)C(=O)C=CC[C@H](C)OC2=O (stereo partly specified)
active

Try COc1cc(C(=O)NC2CCN(C)CC2)ccc1Nc1ncc2c(n1)N(C1CCCC1)CCC(=O)N2C(C)C next.
active

---

- Protocol summary: Quantitative High-Throughput drug screen in 47 multiple myeloma cell lines against the NCATS MIPE library collection: L363_DSMZ cell viability assay (AID 1918984); also: nearly all actives have a fitted effect of over 40% in size
- Test context: L363 myeloma viability, CellTiter-Glo ATP luminescence, 48 h; series mostly up to 45.8 µM
Inconclusive results are not listed. Activity calls are given as the source filed them. The call rests on the fitted dose curve; in most records, active means well fitted cell-killing curve with a large enough effect; inconclusive means small, poorly fitted or top-dose-only effect, or effect the other way; inactive means no such curve, though single readings can be large or run the other way. Starred links: 1 amine or outer side, 2 acyl side, 3 side chain; linkers in the order of their positions; H or OH if unused. Positions of bridges follow the written chain, without caps; N, C: chain ends. Non-standard residues stand in square brackets, D forms with d. Residues, ends and D or L forms follow the SMILES beside them. Chains are numbered I, II in the order given. Actinocin(9to1) = Cc1c2oc3c(C)ccc(C(=O)[*:1])c3nc-2c(C(=O)[*:2])c(N)c1=O; NMeV = CN[CH](C(=O)O)C(C)C; Sar = CNCC(=O)O
Select the correct class. Options are label 1 = active, label 0 = inactive and nothing else.

Compound	Label
CC(C)c1cnn2c(NCc3ccccc3)cc(NCCCCCCN)nc12	label 1
CC(C)N1[N]C(=C2C=c3cc(O)ccc3=N2)c2c(N)ncnc21	label 1
O=C1NCCc2[nH]c(-c3ccncc3)cc21	label 1

Below: the item to evaluate.
Which result was noted for this compound in the test: Cc1c2oc3c(C)ccc(C(=O)NC4C(=O)NC(C(C)C)C(=O)N5CCCC5C(=O)N(C)CC(=O)N(C)C(C(C)C)C(=O)OC4C)c3nc-2c(C(=O)NC2C(=O)NC(C(C)C)C(=O)N3CCCC3C(=O)N(C)CC(=O)N(C)C(C(C)C)C(=O)OC2C)c(N)c1=O (configuration not stated) (I: TVP[Sar][NMeV] / II: TVP[Sar][NMeV]; ester I:1-I:C, II:1-II:C; linker I:N-II:N via Actinocin(9to1); configuration not given here)
label 0

---

- Protocol summary: Quantitative High-Throughput drug screen in 47 multiple myeloma cell lines against the NCATS MIPE library collection: PCM6_Riken cell viability assay (AID 1919870); also: nearly all actives have a fitted effect of over 30% in size
- Test context: CellTiter-Glo ATP, 48 h; series mostly up to 45.8 µM
Inconclusive results are not listed. The source made the active and inactive calls. Calls follow the shape of the dose curve; as a rule, active = well fitted cell-killing curve with a large enough effect; inconclusive = small, poorly fitted or top-dose-only effect, or effect the other way; inactive = no such curve, though single readings can be large or run the other way.
Select the correct class. Options are 1.0 = active, 0.0 = inactive and nothing else.

Worked examples follow.
Molecule	Label
Cc1ccc2nc(NCCN)c3ncc(C)n3c2c1	1.0
O=C(c1ccc(F)cc1)N1CCC[C@H](c2nc(-c3ccc(F)cc3)no2)C1	0.0
CCn1c(=O)c2c(nc(C=Cc3ccc(OC)c(OC)c3)n2C)n(CC)c1=O	0.0

Which result was noted for this molecule in the test: CCS(=O)(=O)Nc1ccc2[nH]c(O)c(C(=Nc3ccc(CN4CCCCC4)cc3)c3ccccc3)c2c1
1.0

Try Cn1cc(C2=C(c3c4n(c5ccccc35)CCC(CN)C4)C(=O)NC2=O)c2ccccc21 (stereo not given) next.
1.0

---

- Protocol summary: Quantitative High-Throughput drug screen in 47 multiple myeloma cell lines against the NCATS MIPE library collection: ARP1_JJKsccF8 cell viability assay (AID 1918928; also: nearly all actives have a fitted effect of over 40% in size;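 as to viability: 100% = DMSO only wells and 0% = medium only wells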)
- Test context: ARP1 myeloma cells viability, CellTiter-Glo ATP, 48 h; series mostly up to 45.8 µM
- From the text: PI: Beverly A. Mock Ph.D. Laboratory of Cancer Biology and Genetics, Center for Cancer Research, National Cancer Institute, National Institute of Health, Bethesda, Maryland […] 5; Detector; 425V; Luminescence; Viewlux PerkinElmer. […] 1. […] Briefly, the corresponding myeloma cell lines were screened in 1,536-well plates with 500 cells, 5-uL per well for inhibition of cell viability (assessed by measuring ATP levels with CellTiterGlo). […]
Records with an inconclusive call do not appear. The source made the active and inactive calls. The call rests on the fitted dose curve; in most records, active means well fitted cell-killing curve with a large enough effect; inconclusive means small, poorly fitted or top-dose-only effect, or effect the other way; inactive means no such curve, though single readings can be large or run the other way.
Select the correct class. Options are active, inactive and nothing else.

Which result was noted for this compound in the test: COc1cc(OC)cc(-c2ccc3ncc4ccc(=O)n(-c5ccc(N6CCNCC6)c(C(F)(F)F)c5)c4c3c2)c1
active

Try CCC(C(=O)O)C1CCC(C)C(C(C)C(O)C(C)C(=O)C(CC)C2OC3(C=CC(O)[C@@]4(CC[C@](C)(C5CC[C@@](O)(CC)C(C)O5)O4)O3)C(C)CC2C)O1 (stereo partly drawn) next.
active

Try O=c1ccn([C@@H]2O[C@H](CO)[C@H](O)[C@@H]2F)c(=O)[nH]1 next.
inactive

Try O=C(C=CC#Cc1cccc(NS(=O)(=O)c2ccccc2)c1)NO next.
active

Try FC(F)(F)c1ccc(Nc2nc3ccc(Oc4ccnc(-c5ncc(C(F)(F)F)[nH]5)c4)cc3[nH]2)cc1 next.
active

---

- Protocol summary: Quantitative High-Throughput drug screen in 47 multiple myeloma cell lines against the NCATS MIPE library collection: INA6_PLB cell viability assay (AID 1918965)
- Test context: INA6 myeloma viability, CellTiter-Glo ATP luminescence, 48 h; series mostly up to 45.8 µM
Results filed as inconclusive are left out. The source made the active and inactive calls. Calls come from the whole dose curve; as a rule, active = well fitted cell-killing curve with a large enough effect; inconclusive = small, poorly fitted or top-dose-only effect, or effect the other way; inactive = no such curve, though single readings can be large or run the other way.
Select the correct class. Options are active, inactive and nothing else.

Worked examples follow.
Compound	Label
O=C(CN1C(=O)C2(CCCC2)NC[C@H]1c1cc(F)cc(F)c1)Nc1ccc2c(c1)C[C@@]1(C2)C(=O)Nc2ncccc21	inactive
CC(C)C[C@H](NC(=O)[C@@H](NC(=O)c1cccc(-c2ccccc2)n1)[C@@H](C)O)B(O)O	active
Cc1cc(-c2nnc3n2CCCCC3)c(C)n1-c1ccccc1	inactive

Which result was noted for this compound in the test: CC(C=CC1=C(C)CCCC1(C)C)=CC=CC(C)=CC(=O)Nc1ccc(O)cc1
active

Try O=c1c(O)c(-c2ccc(O)c(O)c2)oc2cc(O)ccc12 next.
active

Try CCOC(=O)[C@H](CCc1ccccc1)N[C@@H](C)C(=O)N1[C@@H](C(=O)O)C[C@H]2CCC[C@@H]21 next.
active

Try COC(=O)C=CC(=O)OC next.
active

Try CC[C@H]1OC(=O)[C@H](C)[C@@H](O[C@H]2C[C@@](C)(OC)[C@@H](O)[C@H](C)O2)[C@H](C)[C@@H](O[C@@H]2O[C@H](C)C[C@H](N(C)C)[C@@H]2O)[C@](C)(OC)C[C@@H](C)C(=O)[C@H](C)[C@@H](O)[C@]1(C)O next.
inactive
